Values compiled from patent US20230158141A1.

Biological target: T1, IL-10R1-Fc (UniProt Q13651 22-235, limits assumed)
T1 sequence (looked up): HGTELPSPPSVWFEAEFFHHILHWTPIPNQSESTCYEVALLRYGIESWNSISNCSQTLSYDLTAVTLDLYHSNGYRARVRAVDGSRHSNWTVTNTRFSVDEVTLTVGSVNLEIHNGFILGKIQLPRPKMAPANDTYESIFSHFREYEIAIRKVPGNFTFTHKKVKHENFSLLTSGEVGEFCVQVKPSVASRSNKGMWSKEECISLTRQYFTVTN
Assay: ELISA, IL-10R1-Fc coated
Reported Binding recovery (>60%) is given for each of the following binders.
Could you write the number and then its unit?

IL-10 Lys134Cys-R4-7 (ligand, human, UniProt P22301 19-178, looked up, R4-7 on Cys 134, mature) SPGQGTQSENSCTHFPGNLPNMLRDLRDAFSRVKTFFQMKDQLDNLLLKESLLEDFKGYLGCQALSEMIQFYLEEVMPQAENQDPDIKAHVNSLGENLKTLRLRLRRCHRFLPCENKSKAVEQVKNAFNKLQECGIYKAMSEFDIFINYIEAYMTMKIRN    128%

Now for the binder whose Binding recovery (>60%) we want.
Task: # lookup: Binding recovery (>60%) of IL-10 Met22Cys-R4-1 (ligand, human, UniProt P22301 19-178, looked up, R4-1 on Cys 22, mature) SPGQGTQSENSCTHFPGNLPNCLRDLRDAFSRVKTFFQMKDQLDNLLLKESLLEDFKGYLGCQALSEMIQFYLEEVMPQAENQDPDIKAHVNSLGENLKTLRLRLRRCHRFLPCENKSKAVEQVKNAFNKLQEKGIYKAMSEFDIFINYIEAYMTMKIRN
Output: 96.8%
